meta.source: ChEMBL document CHEMBL1201862

Catalogue of GI50 values
system: SK-OV-3; assay: NCI tumour cell line growth inhibition, 48 h
Active and inactive are the calls of the source. No stated cut-off is given here; in the data, active = GI50 up to about 1.1 µM and inactive = higher.

// below: answered compounds
Q: So what does the record say about GI50 for CN(C(=O)C1CC1)C1C2CN3CCC(O2)C13 (configuration not stated) ?
Ans: > 100 µM (inactive)

Q: So what does the record say about GI50 for CCOC(=O)C(=O)Nc1ccccc1CC ?
Ans: > 100 µM (inactive)

Q: So what does the record say about GI50 for CCC(C)C(NC(=O)C(CCCCN)NC(=O)C(NC(=O)C(CCC(N)=O)NC(=O)C(CCCNC(=N)N)NC(C)=O)C(C)CC)C(=O)NC(Cc1c[nH]c2ccccc12)C(=O)NC(Cc1ccccc1)C(=O)NC(CCC(N)=O)C(=O)NC(CC(N)=O)C(=O)NC(CCCNC(=N)N)C(=O)NC(CCCNC(=N)N)C(=O)NC(CCSC)C(=O)NC(CCCCN)C(=O)NC(Cc1c[nH]c2ccccc12)C(=O)NC(CCCCN)C(=O)NC(CCCCN)C(N)=O (configuration not stated) ?
Ans: 31.7 µM (inactive)

Q: So what does the record say about GI50 for CC(=O)/N=C1\NC(=O)/C(=C/c2ccc(Cl)cc2Cl)N1C ?
Ans: > 100 µM (inactive)

Q: So what does the record say about GI50 for CCOC(=O)c1ccc(-c2cccs2)[nH]1 ?
Ans: > 62.7 µM (inactive)

Further cases:
Q: So what does the record say about GI50 for CN(C)C=C1C(=O)c2c(Br)sc(Br)c2C1=O ?
Ans: 22 µM (inactive)

Q: So what does the record say about GI50 for O=C(O)CCC1CCc2cccc(OCC(=O)O)c2C1=O (configuration not stated) ?
Ans: > 100 µM (inactive)

* * *

system: NCI-H23; experiment: NCI tumour cell line growth inhibition, 48 h
Active and inactive are the calls of the source. Rule as the data show it: active = GI50 up to about 1.1 µM and inactive = higher.
Catalogue of GI50 values

Q: So what does the record say about GI50 for O=C(O)CCC1CCc2cccc3occ1c23 (stereo unspecified) ?
Ans: > 100 µM (inactive)

Q: So what does the record say about GI50 for CC#Cc1c(C#CC)c(OC)c2c(c1OC)C(=O)c1ccccc1C2=O ?
Ans: 29.8 µM (inactive)

Q: So what does the record say about GI50 for CC(C)c1ccc(/C=C(\NC(=O)c2ccccc2)c2nc3ccccc3[nH]2)cc1 ?
Ans: 26.8 µM (inactive)

Q: So what does the record say about GI50 for CC(C)(C)C1=CC(C)(n2[nH]c(=O)n(-c3ccccc3)c2=O)C=C(C(C)(C)C)C1=O ?
Ans: > 100 µM (inactive)

Q: So what does the record say about GI50 for C/C(=N/NC(=O)c1ccccc1O)c1ccc(/C(C)=N\NC(=O)c2ccccc2O)c2nc3cc(C)c(C)cc3nc12 ?
Ans: > 100 µM (inactive)

Q: So what does the record say about GI50 for Cc1c(CCCl)c(N=P(c2ccccc2)(c2ccccc2)c2ccccc2)n2c(nc3ccccc32)c1C#N ?
Ans: > 10 µM (inactive)

Q: So what does the record say about GI50 for C1OCC2S[C@@H]3COCO[C@@H]3C2O1 (stereo partly specified) ?
Ans: > 100 µM (inactive)

Q: So what does the record say about GI50 for O=C1C(=CNc2ccc([N+](=O)[O-])cc2)C(=O)N(c2ccccc2)C(=O)N1c1ccccc1 ?
Ans: > 100 µM (inactive)

Q: So what does the record say about GI50 for CC(C)=CCOC(=O)C(C)=[N+]=[N-] ?
Ans: > 100 µM (inactive)

Q: So what does the record say about GI50 for CC(O)C1(CNc2cc(Cl)nc(N)n2)CCCC1 (stereo unspecified) ?
Ans: 90.4 µM (inactive)

Could you now consider this next molecule?
Q: So what does the record say about GI50 for Cc1nc2c(o1)C(=O)c1ccccc1/C2=N/c1ccc(N2CCOCC2)cc1 ?
Ans: 2.39 µM (inactive)

* * *

tested on: LXFL 529; assay: NCI tumour cell line growth inhibition, 48 h
Active and inactive are the calls of the source. No stated cut-off is given here; in the data, active = GI50 up to about 1.1 µM and inactive = higher.
Just give me one of these, please: YES = active, NO = inactive

Example entries begin here.
Q: GET /call?item= CCc1cccc(CC)c1NC(=O)CC1SC(N)=NC1=O (stereo not drawn) returns the recorded outcome of this test.
Ans: NO

Q: GET /call?item= N/C(S)=N/N=C/c1ccc(O)cn1 returns the recorded outcome of this test.
Ans: NO

Q: GET /call?item= CCOC(=O)C1(Cc2ccc3ccccc3c2)CCCCC(=O)N1 (stereo not drawn) returns the recorded outcome of this test.
Ans: NO

Q: GET /call?item= COc1ccc(C(=O)N2c3ccccc3N(C)n3cccc3C2CC(=O)O)cc1 (stereo not drawn) returns the recorded outcome of this test.
Ans: NO

Lab note: next molecule to report on.
Q: GET /call?item= CCCCC/C=C1\CCC(CN(C)C)C1=O (stereo not drawn) returns the recorded outcome of this test.
Ans: NO

* * *

tested on: Malme-3M; assay: NCI tumour cell line growth inhibition, 48 h
Active and inactive are the calls of the source. Cut-off read from the data, not from the text of the source: active = GI50 up to about 1.1 µM and inactive = higher.
endpoint label: GI50

Q: So what does the record say about GI50 for CC(=O)c1c(O)c(C)c(O)c(Cc2c(O)c3c(c(C(=O)/C=C/c4ccccc4)c2O)OC(C)(C)C=C3)c1O [ROTTLERIN] ?
Ans: 2.84 µM (inactive)

Q: So what does the record say about GI50 for C=CC(=O)NC(=N)NC#N ?
Ans: 145 µM (inactive)

Q: So what does the record say about GI50 for CN(C)c1ccc(/C=C(\NC(=O)c2ccccc2)C(=O)Nc2ccccc2C(=O)NCc2ccccc2)cc1 ?
Ans: > 100 µM (inactive)

Q: So what does the record say about GI50 for Oc1c(CN2CCOCC2)ccc2cccnc12 ?
Ans: > 10 µM (inactive)

Q: So what does the record say about GI50 for O=C(c1ccco1)N(C(=S)OCCOc1ccccc1)c1ccccc1 ?
Ans: 19.9 µM (inactive)

Further cases:
Q: So what does the record say about GI50 for CN(C(=O)C1CC1)C1C2CN3CCC(O2)C13 (stereo not given) ?
Ans: > 100 µM (inactive)

Q: So what does the record say about GI50 for C[C@H]1CCC2C(CN3CCCCC3)C(=O)OC2[C@]2(C)C(=O)CC(N3CCCCC3)C12O (stereo not given in full) ?
Ans: 9.44 µM (inactive)

Q: So what does the record say about GI50 for COc1ccc(C(=O)N2c3ccccc3N(C)n3cccc3C2CC(=O)O)cc1 (stereo not given) ?
Ans: > 100 µM (inactive)

Q: So what does the record say about GI50 for Cc1cc(C)c(N[S+]([O-])c2cccc(Cl)c2)c(C)c1 (stereo not given) ?
Ans: > 100 µM (inactive)

Q: So what does the record say about GI50 for Nc1ccc(C(=O)NN2C(=O)C(Cl)C2c2ccccc2O)cc1 (stereo not given) ?
Ans: > 100 µM (inactive)

* * *

test system: Hs-578T; test: NCI tumour cell line growth inhibition, 48 h
Active and inactive are the calls of the source. No stated cut-off is given here; in the data, active = GI50 up to about 1.1 µM and inactive = higher. Where a SMILES comes first, the peptide text is derived from it. The star is where a group is joined. Cbz = O=C(OCc1ccccc1)*; Bn = c1ccc(C*)cc1
endpoint label: GI50

// below: answered compounds
Q: So what does the record say about GI50 for COC(=O)C(Cc1ccc(O)cc1)NC(=O)C(COCc1ccccc1)NC(=O)OCc1ccccc1 (stereo unspecified) (Cbz-Ser(Bn)-Tyr-OMe; configuration not given here) ?
Ans: 24.6 µM (inactive)

Q: So what does the record say about GI50 for OC1CSCCSCCCSCCSC1 ?
Ans: > 100 µM (inactive)

Q: So what does the record say about GI50 for Cc1cc(C)nc(NC(=S)Nc2ccccc2Cl)c1 ?
Ans: > 100 µM (inactive)

Further cases:
Q: So what does the record say about GI50 for C[N+](C)(C)CC(=O)N/N=C\c1c(O)ccc2ccccc12 ?
Ans: 14.4 µM (inactive)

Q: So what does the record say about GI50 for NC(=O)C1N=NSC1NC(=O)c1ccc([N+](=O)[O-])cc1 (stereo unspecified) ?
Ans: 75 µM (inactive)

Q: So what does the record say about GI50 for Cc1ccc(/N=N/c2c(O)c(C(=O)Nc3ccccc3)cc3ccccc23)c([N+](=O)[O-])c1 ?
Ans: > 100 µM (inactive)

Q: So what does the record say about GI50 for CCOC(=O)c1ccc(-c2cccs2)[nH]1 ?
Ans: 76.9 µM (inactive)

Q: So what does the record say about GI50 for Cc1cc(S(=O)(=O)Nc2nc(N)n[nH]2)c(Cl)cc1Cl ?
Ans: > 10 µM (inactive)

Q: So what does the record say about GI50 for COc1ccc2nc3cc([N+](=O)[O-])ccc3c(NNc3ccccc3)c2c1 ?
Ans: 26.5 µM (inactive)

Q: So what does the record say about GI50 for NC(C(=O)O)C(O)c1c[nH]cn1 (stereo unspecified) ?
Ans: > 100 µM (inactive)

Q: So what does the record say about GI50 for COc1ccc(C2CC(c3ccc4ccccc4c3O)=NN2)cc1OC (stereo unspecified) ?
Ans: 76.7 µM (inactive)
